system: THRa:RXRa (NR concentration 90 nM, RXRa partner concentration 90 nM); assay: PBM binding z-score (relative to random genomic background probes); higher = stronger binding; sequences stand for … in GC…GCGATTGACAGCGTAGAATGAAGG
For each entry below, report its PBM binding z-score value.

IN: Quick one: PBM binding z-score of "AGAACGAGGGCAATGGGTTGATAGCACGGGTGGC" ?
OUT: 1.12

IN: Quick one: PBM binding z-score of "GCATATAGGTAATACAAGGTGAAAGTACGATTGT" ?
OUT: 4.29

IN: Quick one: PBM binding z-score of "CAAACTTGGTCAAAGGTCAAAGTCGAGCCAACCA" ?
OUT: 3.89

----------
system: PXR:RXRa (NR concentration 270 nM, RXRa partner concentration 90 nM); assay: PBM binding z-score (relative to random genomic background probes); higher = stronger binding; sequences stand for … in GC…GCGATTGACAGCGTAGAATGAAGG
Lab note: anything with PBM binding z-score at or over 3 counts as 1 (yes); the rest go in 0 (no).

IN: Hello, I need to know if "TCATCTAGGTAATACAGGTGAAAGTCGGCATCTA" has measured PBM binding z-score not below 3. Thanks!
OUT: 0 (no)

IN: Hello, I need to know if "TCTTGTAGATCAACAGGAGCTTAAGAAAGATCGA" has measured PBM binding z-score not below 3. Thanks!
OUT: 0 (no)

IN: Hello, I need to know if "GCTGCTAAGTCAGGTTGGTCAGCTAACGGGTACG" has measured PBM binding z-score not below 3. Thanks!
OUT: 0 (no)

IN: Hello, I need to know if "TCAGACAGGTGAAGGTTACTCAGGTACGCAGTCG" has measured PBM binding z-score not below 3. Thanks!
OUT: 0 (no)

IN: Hello, I need to know if "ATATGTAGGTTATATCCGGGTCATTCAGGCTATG" has measured PBM binding z-score not below 3. Thanks!
OUT: 1 (yes)

IN: Hello, I need to know if "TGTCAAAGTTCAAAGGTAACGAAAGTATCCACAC" has measured PBM binding z-score not below 3. Thanks!
OUT: 1 (yes)

IN: Hello, I need to know if "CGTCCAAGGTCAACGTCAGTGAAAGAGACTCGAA" has measured PBM binding z-score not below 3. Thanks!
OUT: 1 (yes)

IN: Hello, I need to know if "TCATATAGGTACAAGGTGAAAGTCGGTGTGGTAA" has measured PBM binding z-score not below 3. Thanks!
OUT: 0 (no)

IN: Hello, I need to know if "GCTGCTAGGTCAGGTTGGTCAGTTAACGGGTACG" has measured PBM binding z-score not below 3. Thanks!
OUT: 0 (no)

IN: Hello, I need to know if "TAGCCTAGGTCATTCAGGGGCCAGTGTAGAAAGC" has measured PBM binding z-score not below 3. Thanks!
OUT: 0 (no)

IN: Hello, I need to know if "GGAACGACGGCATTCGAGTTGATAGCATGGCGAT" has measured PBM binding z-score not below 3. Thanks!
OUT: 0 (no)

IN: Hello, I need to know if "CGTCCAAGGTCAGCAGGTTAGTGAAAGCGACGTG" has measured PBM binding z-score not below 3. Thanks!
OUT: 0 (no)

IN: Hello, I need to know if "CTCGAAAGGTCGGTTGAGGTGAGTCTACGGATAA" has measured PBM binding z-score not below 3. Thanks!
OUT: 1 (yes)

IN: Hello, I need to know if "CCAACTGGGGCAGAAAGGTTACCATACCATCCGG" has measured PBM binding z-score not below 3. Thanks!
OUT: 0 (no)

IN: Hello, I need to know if "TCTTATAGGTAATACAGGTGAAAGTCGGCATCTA" has measured PBM binding z-score not below 3. Thanks!
OUT: 0 (no)

IN: Hello, I need to know if "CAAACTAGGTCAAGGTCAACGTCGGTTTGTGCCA" has measured PBM binding z-score not below 3. Thanks!
OUT: 1 (yes)

IN: Hello, I need to know if "TAGCCCAGGTCATTGGGCCAGTATAGTACGCATC" has measured PBM binding z-score not below 3. Thanks!
OUT: 0 (no)

IN: Hello, I need to know if "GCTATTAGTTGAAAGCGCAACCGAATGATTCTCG" has measured PBM binding z-score not below 3. Thanks!
OUT: 0 (no)

IN: Hello, I need to know if "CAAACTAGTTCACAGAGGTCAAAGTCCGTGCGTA" has measured PBM binding z-score not below 3. Thanks!
OUT: 1 (yes)

IN: Hello, I need to know if "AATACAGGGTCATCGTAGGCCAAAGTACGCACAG" has measured PBM binding z-score not below 3. Thanks!
OUT: 1 (yes)

----------
For each entry below, report its PBM binding z-score value.
test system: LXRa:RXRa (NR concentration 270 nM, RXRa partner concentration 90 nM); test: PBM binding z-score (relative to random genomic background probes); higher = stronger binding; sequences stand for … in GC…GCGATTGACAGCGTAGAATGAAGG
Please respond with just the number, no unit label.

IN: Given the entry "GCATCTAGGTAATACAAGGTGAAAGTCCGATTGT" , what PBM binding z-score was observed with LXRa:RXRa (NR concentration 270 nM, RXRa partner concentration 90 nM)?
OUT: 1.15

IN: Given the entry "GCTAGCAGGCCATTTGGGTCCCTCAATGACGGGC" , what PBM binding z-score was observed with LXRa:RXRa (NR concentration 270 nM, RXRa partner concentration 90 nM)?
OUT: -0.686

IN: Given the entry "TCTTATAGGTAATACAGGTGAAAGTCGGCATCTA" , what PBM binding z-score was observed with LXRa:RXRa (NR concentration 270 nM, RXRa partner concentration 90 nM)?
OUT: 1.45

IN: Given the entry "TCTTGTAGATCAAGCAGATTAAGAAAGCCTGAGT" , what PBM binding z-score was observed with LXRa:RXRa (NR concentration 270 nM, RXRa partner concentration 90 nM)?
OUT: -0.059

IN: Given the entry "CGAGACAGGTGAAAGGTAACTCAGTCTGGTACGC" , what PBM binding z-score was observed with LXRa:RXRa (NR concentration 270 nM, RXRa partner concentration 90 nM)?
OUT: 0.602

IN: Given the entry "GCTTGTAGATCAAGGTTAAGACAGACTAAGCTAA" , what PBM binding z-score was observed with LXRa:RXRa (NR concentration 270 nM, RXRa partner concentration 90 nM)?
OUT: 0.807

----------
test system: PXR homodimer (NR concentration 270 nM); test: PBM binding z-score (relative to random genomic background probes); higher = stronger binding; sequences stand for … in GC…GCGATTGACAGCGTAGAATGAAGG
Measured Property: PBM binding z-score

IN: Quick one: PBM binding z-score of "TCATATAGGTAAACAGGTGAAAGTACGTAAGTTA" ?
OUT: 0.715

IN: Quick one: PBM binding z-score of "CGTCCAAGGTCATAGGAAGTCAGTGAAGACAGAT" ?
OUT: 0.915

IN: Quick one: PBM binding z-score of "TCAGACAGGTGAAGGTAGCTCAGGTACGCAGTCG" ?
OUT: -0.0197

IN: Quick one: PBM binding z-score of "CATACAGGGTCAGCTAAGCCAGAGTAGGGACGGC" ?
OUT: -0.442

IN: Quick one: PBM binding z-score of "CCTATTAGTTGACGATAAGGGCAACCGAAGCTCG" ?
OUT: 0.241

IN: Quick one: PBM binding z-score of "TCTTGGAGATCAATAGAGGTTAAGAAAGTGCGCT" ?
OUT: -0.00174

IN: Quick one: PBM binding z-score of "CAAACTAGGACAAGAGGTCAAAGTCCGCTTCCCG" ?
OUT: 2.97

IN: Quick one: PBM binding z-score of "TGAGTGAGGTTATAAGATCAGGGAACGTTGCAAA" ?
OUT: 0.0305

IN: Quick one: PBM binding z-score of "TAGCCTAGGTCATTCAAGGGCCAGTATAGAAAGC" ?
OUT: 0.325

IN: Quick one: PBM binding z-score of "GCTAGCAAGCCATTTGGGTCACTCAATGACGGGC" ?
OUT: -0.796

IN: Quick one: PBM binding z-score of "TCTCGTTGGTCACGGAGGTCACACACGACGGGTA" ?
OUT: 0.995

IN: Quick one: PBM binding z-score of "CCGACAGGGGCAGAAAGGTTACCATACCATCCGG" ?
OUT: 0.36

IN: Quick one: PBM binding z-score of "ATCTCTAGGTACAAGTTCAGTGAATCCCGAGGAT" ?
OUT: 1.54

IN: Quick one: PBM binding z-score of "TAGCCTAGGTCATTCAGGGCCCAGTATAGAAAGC" ?
OUT: -0.155

IN: Quick one: PBM binding z-score of "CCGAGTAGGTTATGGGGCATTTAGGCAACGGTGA" ?
OUT: -0.192

IN: Quick one: PBM binding z-score of "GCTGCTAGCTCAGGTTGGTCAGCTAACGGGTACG" ?
OUT: -0.881

IN: Quick one: PBM binding z-score of "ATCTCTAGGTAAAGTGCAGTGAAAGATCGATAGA" ?
OUT: 0.194

IN: Quick one: PBM binding z-score of "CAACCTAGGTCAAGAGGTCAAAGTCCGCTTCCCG" ?
OUT: 2.37

IN: Quick one: PBM binding z-score of "ACTACAGGGTCACTAGGCCAGAGTAGGTACGAAT" ?
OUT: 0.0574

IN: Quick one: PBM binding z-score of "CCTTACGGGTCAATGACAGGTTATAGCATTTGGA" ?
OUT: 0.512

IN: Quick one: PBM binding z-score of "CTCGAAAGGTCGGTTGAGCTGAGTATACGGATAA" ?
OUT: -0.439

IN: Quick one: PBM binding z-score of "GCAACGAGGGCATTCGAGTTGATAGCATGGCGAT" ?
OUT: 1.02

IN: Quick one: PBM binding z-score of "CCTCGGAGGACAACAGGACGTCAGAGCTGCCAGA" ?
OUT: -0.482

IN: Quick one: PBM binding z-score of "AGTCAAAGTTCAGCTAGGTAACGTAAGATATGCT" ?
OUT: 1.8

IN: Quick one: PBM binding z-score of "TCTTGTAGAACAAAGGTTAAGAAAGCCGAAGCCT" ?
OUT: -0.451

IN: Quick one: PBM binding z-score of "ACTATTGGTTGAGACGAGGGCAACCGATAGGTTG" ?
OUT: 0.199
